Test system: HT-29
ASSAY COMMENT: Inhibition of cells growth by colorimetric (SRB) assay, HT-29
APPLIED CONDITIONS: read-out: LC50 HT-29; SRB assay, 48 hours exposure
MEASURED PARAMETER: CC50

Example entries and their recorded answers appear below.
1) COc1nccc(-c2c3cccnc3n3c(N)nccc23)n1 [Compound 76] :: ≥ 34.2 µM
2) CCOc1nccc(-c2c3cccnc3n3c(N)nccc23)n1 [Compound 77] :: 3.26 µM
3) Cl.Nc1nccc2c(-c3ccncn3)c3c(O)ccnc3n12 [Compound 101] :: ≥ 33.9 µM

input: Which measured CC50 value corresponds to COc1ccnc2c1c(-c1ccnc(N)n1)c1ccnc(N)n12.Cl [Compound 116] ?
output: 26.3 µM

input: Moving on to Cc1ccc2c(-c3ccnc(N)n3)c3ccnc(N)n3c2n1 [Compound 24]
output: ≥ 34.3 µM

input: Next entry: Cl.Nc1nccc(-c2c3c(N)ccnc3n3c(N)nccc23)n1 [Compound 91]
output: 24.9 µM

* * *

System: HT-29
ASSAY COMMENT: Inhibition of cells growth by colorimetric (SRB) assay, HT-29
APPLIED CONDITIONS: Homo sapiens, HT-29, 48 h, read-out: HT-29 GI50, SRB assay, 48 hours exposure
Measured log10 of GI50 by item
All values: base-10 log of GI50 in nM.

Known results for compounds:
1) CS(=O)(=O)c1nccc(-c2c3cccnc3n3c(N)nccc23)n1 [Compound 73] :: 4.16
2) Cl.Nc1nccc(-c2c3c(O)ccnc3n3c(N)nccc23)n1 [Compound 54] :: 3.23
3) COc1ccc(COc2nccc(-c3c4cccnc4n4c(N)nccc34)n2)cc1 [Compound 79] :: 4.40

input: Data request, read-out log10 of GI50, for CSc1nccc(-c2c3cccnc3n3c(NC(C)=O)nccc23)n1 [Compound 69]
output: 2.95

input: What about this compound? CSc1nccc(-c2c3ccc(C)nc3n3c(N)nccc23)n1 [Compound 43]
output: 2.97

input: Param item: CSc1nccc(-c2c3cccnc3n3c(N(C(C)=O)C(C)=O)nccc23)n1 [Compound 26]
output: 3.02

input: Also Cc1nccc(-c2c3cccnc3n3c(N)nccc23)n1 [Compound 75] ?
output: 3.76

input: Cool, now COc1cccc(-c2c3cccnc3n3c(N)nccc23)c1.Cl [Compound 67]
output: 4.49

* * *

# GI50 annotations
System: LNCaP
ASSAY COMMENT: Inhibition of cells growth by colorimetric (SRB) assay, LNCaP
APPLIED CONDITIONS: Homo sapiens, LNCaP, 48 h, read-out: GI50 LN-caP, SRB assay, 48 hours exposure

The following compounds have reported results that may help.
1. C[S+]([O-])c1nccc(-c2c3c(Cl)ccnc3n3c(N)nccc23)n1 (centres unmarked) :: 1.45 µM
2. CSc1nccc(-c2c3cccnc3n3c(N(C(C)=O)C(C)=O)nccc23)n1 :: 0.703 µM
3. Nc1nccc2c(-c3ccnc(O)n3)c3c(O)ccnc3n12 :: 6.42 µM

input: Sample Nc1nccc(-c2c3cc(F)c(Cl)nc3n3c(N)nccc23)n1 — what was its GI50?
output: 0.886 µM

input: Try the compound Nc1nccc(-c2c3cccnc3n3ccccc23)n1
output: 5.93 µM

input: What would you report for CS(=O)(=O)c1nccc(-c2c3c(Cl)ccnc3n3c(N)nccc23)n1 ?
output: 4.3 µM

input: What do you have for Nc1nccc2c(-c3cccs3)c3cccnc3n12 ?
output: 17.1 µM

input: Also need COc1ccc2nc3c(cc2c1)c(-c1ccnc(N)n1)c1ccnc(N)n13 [Compound 19b] , thanks.
output: 2.36 µM
